- experimentDescription: refractive index (Na D-line) (dimensionless); xn = mol fraction of the nth substance listed
- condition: 308.15 K; 100.5 kPa; Liquid; Standard Abbe refractometry; x1 = 0.8
readoutType: refractive index
Respond with the number and no other words.

See these solved cases before continuing.
Prompt: Item CCCCCC(=O)OCC [ethyl hexanoate] + CCO has what recorded refractive index?
Completion: 1.39682

Prompt: Item CCOC(=O)c1ccccc1 [ethyl benzoate] + CCO has what recorded refractive index?
Completion: 1.48578

Prompt: Item CCCC(=O)OCCC(C)C [3-methylbutyl butanoate] + CCO has what recorded refractive index?
Completion: 1.40015

Prompt: Item CCCCCCCC(=O)OCC [ethyl octanoate] + CCO has what recorded refractive index?
Completion: 1.40739

Prompt: Item CC(=O)OCCC(C)C [3-methylbutyl ethanoate] + CCO has what recorded refractive index?
Completion: 1.39011

Others:
Prompt: Item CCOC(=O)Cc1ccccc1 [ethyl phenylacetate] + CCO has what recorded refractive index?
Completion: 1.47943
